// provenance: paper PMC6100008

tested.system: human serotonin 5-HT2A receptor (Homo sapiens)
Sequence (P28223 whole entry): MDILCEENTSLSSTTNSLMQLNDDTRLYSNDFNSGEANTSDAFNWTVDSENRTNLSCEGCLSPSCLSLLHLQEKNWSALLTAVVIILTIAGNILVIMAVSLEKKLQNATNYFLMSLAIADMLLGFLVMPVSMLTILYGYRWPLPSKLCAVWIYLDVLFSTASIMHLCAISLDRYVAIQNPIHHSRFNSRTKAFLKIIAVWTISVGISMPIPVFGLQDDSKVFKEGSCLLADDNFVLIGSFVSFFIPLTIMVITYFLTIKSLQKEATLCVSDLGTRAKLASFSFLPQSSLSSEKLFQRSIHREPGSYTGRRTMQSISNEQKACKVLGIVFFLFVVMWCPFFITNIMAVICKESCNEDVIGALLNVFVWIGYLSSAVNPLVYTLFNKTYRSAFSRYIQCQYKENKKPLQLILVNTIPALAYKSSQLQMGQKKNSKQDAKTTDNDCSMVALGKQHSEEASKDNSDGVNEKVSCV
Assignment: determine reported Ki for the given compounds.

| smiles.repr | parameter | reading |
| --- | --- | --- |
| Cc1c(-c2ccccc2)sc(NC(=O)Cn2c(=O)cnc3ccccc32)c1C(=O)N1CCCCC1 | Ki | > 20 µM |

Query: Consider the compound Cc1c(C(=O)N2CCC(c3ncc[nH]3)CC2)n[nH]c1-c1ccc(Cl)cc1 and give its recorded Ki.
Response: > 20 µM

* * *

tested.system: human 5-HT2B receptor (Homo sapiens, UniProt P41595)
Sequence (P41595 whole entry): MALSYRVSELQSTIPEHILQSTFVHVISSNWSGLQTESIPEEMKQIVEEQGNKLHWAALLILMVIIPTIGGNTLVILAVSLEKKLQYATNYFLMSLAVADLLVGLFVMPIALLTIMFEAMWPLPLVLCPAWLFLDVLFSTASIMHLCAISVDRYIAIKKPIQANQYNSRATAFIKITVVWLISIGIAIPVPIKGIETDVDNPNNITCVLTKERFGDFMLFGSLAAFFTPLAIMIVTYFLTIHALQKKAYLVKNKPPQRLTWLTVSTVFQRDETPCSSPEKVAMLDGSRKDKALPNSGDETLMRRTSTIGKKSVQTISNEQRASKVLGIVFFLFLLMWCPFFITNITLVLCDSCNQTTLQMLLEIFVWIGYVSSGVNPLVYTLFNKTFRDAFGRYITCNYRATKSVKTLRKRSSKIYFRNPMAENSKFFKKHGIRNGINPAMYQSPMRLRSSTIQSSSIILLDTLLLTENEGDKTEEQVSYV
experiment.notes: Competition binding in human 5-HT2B receptor ([3H]-LSD, CHO-5-HT2B membranes)
particulars: read-out: 5-HT2B (%) percentage of inhibition
Assignment: determine reported inhibition at 10 µM for the given compounds.
Answers are plain numbers, in %.

Solved cases (5 shown):
| compound | parameter | reading |
| --- | --- | --- |
| COc1ccc2c(c1)NC1(CCN(C(=O)c3ccc(C)c(C)c3)CC1)c1cccn1-2 | inhibition at 10 µM | 31 |
| Cc1ncc(C(=O)N2CCC(c3nccn3Cc3ccccc3)CC2)c(=O)[nH]1 | inhibition at 10 µM | 34 |
| CCOC(=O)c1c(CN2CCCCC2)n(C)c2c1cc(OC(C)=O)c1c2c(-c2ccccc2)nn1-c1ccccc1 | inhibition at 10 µM | 34 |
| Cc1cccc2[nH]c(C3CCN(C(=O)c4cnn[nH]4)CC3)nc12 | inhibition at 10 µM | 40 |
| CCc1ccc(NC(=O)c2ccc(-c3noc(C4CCN(C(=O)c5ccc(F)cc5)CC4)n3)cc2)cc1 | inhibition at 10 µM | 24 |

Query: Consider the compound COc1cccc(-c2n[nH]cc2C(=O)N2CCCC(c3cc(O)ncn3)C2)c1 (stereo not drawn) and give its recorded inhibition at 10 µM.
Response: 36

* * *

As an illustration, consider measured pKi for molecules on human 5-HT2B receptor (Homo sapiens).
One number for each entry, as −log10 of the molar value.

Solved cases (2 shown):
| molecule | pKi |
| --- | --- |
| Cc1c(C(=O)N2CCC(c3ncc[nH]3)CC2)n[nH]c1-c1ccc(Cl)cc1 [Compound 8] | 9.52 |
| Cc1c(-c2ccccc2)sc(NC(=O)Cn2c(=O)cnc3ccccc32)c1C(=O)N1CCCCC1 [Compound 9] | 6.63 |

With those in mind, consider the next molecule.
Query: Consider the molecule Cn1c(CN2CCCCC2)nnc1C1CCCN(CCc2ccccc2)C1 (stereo not drawn) [Compound 10] and give its recorded pKi.
Response: 5.58

* * *

Assignment: determine reported Ki for the given compounds.
Target protein (sequence): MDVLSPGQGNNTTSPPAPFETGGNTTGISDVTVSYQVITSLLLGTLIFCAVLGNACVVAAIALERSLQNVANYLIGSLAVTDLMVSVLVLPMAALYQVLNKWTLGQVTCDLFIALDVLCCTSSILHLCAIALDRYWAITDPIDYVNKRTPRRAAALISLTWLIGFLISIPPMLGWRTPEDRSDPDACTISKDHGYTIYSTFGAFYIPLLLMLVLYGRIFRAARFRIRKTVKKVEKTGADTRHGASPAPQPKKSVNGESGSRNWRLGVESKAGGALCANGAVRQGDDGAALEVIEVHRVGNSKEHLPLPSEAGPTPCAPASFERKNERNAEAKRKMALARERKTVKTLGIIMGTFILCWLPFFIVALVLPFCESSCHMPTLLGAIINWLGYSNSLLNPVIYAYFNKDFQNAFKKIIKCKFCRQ

| compound | parameter | reading |
| --- | --- | --- |
| Cc1c(-c2ccccc2)sc(NC(=O)Cn2c(=O)cnc3ccccc32)c1C(=O)N1CCCCC1 [Compound 9] | Ki | > 20 µM |

With those in mind, consider the next compound.
Query: Consider the compound Cc1c(C(=O)N2CCC(c3ncc[nH]3)CC2)n[nH]c1-c1ccc(Cl)cc1 [Compound 8] and give its recorded Ki.
Response: > 20 µM
